The reader will find reported IC50 values listed item by item below.
Tested on: HOP-62 multicell spheroids with HUVEC/MSC, viability
Assay protocol: Anticancer human tumor HOP-62 cell line growth inhibition [KRAS2];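 note: viability read after a week of compound exposure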
Test settings: curve of first compound; second compound 0.316 µM
Reply with just the number (in nM).

Example compounds with recorded IC50:
CCNC(=O)CC1N=C(c2ccc(Cl)cc2)c2cc(OC)ccc2-n2c(C)nnc21 (stereo not given) + CNCc1ccccc1-c1csc(C(C)Nc2nc(C)nc3cc(OC)c(OC)cc23)c1    245
CCNC(=O)CC1N=C(c2ccc(Cl)cc2)c2cc(OC)ccc2-n2c(C)nnc21 (stereo not given) + COc1cc2nc(C)nc(NC(C)c3cc(N)cc(C(F)(F)F)c3)c2cc1OC1CCOC1    189
COC(=O)c1ccc2c(C(=Nc3ccc(N(C)C(=O)CN4CCN(C)CC4)cc3)c3ccccc3)c(O)[nH]c2c1 + CC1OCC2(CCN(c3cnc(Sc4ccnc(N)c4Cl)c(N)n3)CC2)C1N    105

Query: Look at this compound and give its reported IC50. CC(C)n1nc(-c2ccc3oc(N)nc3c2)c2c(N)ncnc21 + C=CC(=O)N1CCN(c2nc(=O)n(-c3c(C)ccnc3C(C)C)c3nc(-c4c(O)cccc4F)c(F)cc23)C(C)C1
Response: 0.36

Query: Look at this compound and give its reported IC50. CC(=O)Nc1cccc(-n2c(=O)n(C3CC3)c(=O)c3c(Nc4ccc(I)cc4F)n(C)c(=O)c(C)c32)c1 + COc1cc2nc(C)nc(NC(C)c3cc(N)cc(C(F)(F)F)c3)c2cc1OC1CCOC1
Response: 3.01

Query: Look at this compound and give its reported IC50. CC1COCCN1c1cc(-c2ccnn2C)c2ccnc(-c3ccn[nH]3)c2n1 (stereo not given) + C=CC(=O)N1CCN(c2nc(OCC3CCCN3C)nc3c2CCN(c2cccc4cccc(C)c24)C3)CC1CC#N
Response: 12.2

Query: Look at this compound and give its reported IC50. COc1cc2nccc(Oc3ccc(NC(=O)C4(C(=O)Nc5ccc(F)cc5)CC4)cc3)c2cc1OC + C=CC(=O)N1CCN(c2nc(OCC3CCCN3C)nc3c2CCN(c2cccc4cccc(C)c24)C3)CC1CC#N
Response: 31.6

Query: Look at this compound and give its reported IC50. O=C(c1cc(Cc2n[nH]c(=O)c3ccccc23)ccc1F)N1CCN(C(=O)C2CC2)CC1 + CNCc1ccccc1-c1csc(C(C)Nc2nc(C)nc3cc(OC)c(OC)cc23)c1
Response: 6810

* * *

Tested on: HOP-62 multicell spheroids with HUVEC/MSC, viability
Assay protocol: Anticancer human tumor HOP-62 cell line growth inhibition [KRAS2]; active = viability on the fitted dose curve at most 10% of control; inactive = the rest;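 note: viability read after a week of compound exposure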
Test settings: second compound 3.16 µM; first compound 0.0316 µM
Field 'call' accepts active, inactive

Here's what some known entries look like.
COc1cc(Nc2ncc3c(n2)-c2ccc(Cl)cc2C(c2c(F)cccc2OC)=NC3)ccc1C(=O)O + C=CC(=O)N1CCN(c2nc(OCC3CCCN3C)nc3c2CCN(c2cccc4cccc(C)c24)C3)CC1CC#N    inactive
O=C(c1cc(Cc2n[nH]c(=O)c3ccccc23)ccc1F)N1CCN(C(=O)C2CC2)CC1 + C=CC(=O)N1CCN(c2nc(=O)n(-c3c(C)ccnc3C(C)C)c3nc(-c4c(O)cccc4F)c(F)cc23)C(C)C1    inactive
Cn1ncnc1[C@H]1c2n[nH]c(=O)c3cc(F)cc(c23)N[C@@H]1c1ccc(F)cc1 + C=CC(=O)N1CCN(c2nc(OCC3CCCN3C)nc3c2CCN(c2cccc4cccc(C)c24)C3)CC1CC#N    active
CC(=O)OC12COC1CC(O)C1(C)C(=O)C(O)C3=C(C)C(OC(=O)C(O)C(NC(=O)OC(C)(C)C)c4ccccc4)CC(O)(C(OC(=O)c4ccccc4)C21)C3(C)C (stereo not given) + CNCc1ccccc1-c1csc(C(C)Nc2nc(C)nc3cc(OC)c(OC)cc23)c1    active

Query: Each compound tested received a call. Report the one for CC(C)n1nc(-c2ccc3oc(N)nc3c2)c2c(N)ncnc21 + CC1OCC2(CCN(c3cnc(Sc4ccnc(N)c4Cl)c(N)n3)CC2)C1N .
Response: active
